- Test system: Alveolar epithelial cells BEAS-2B
- assay.method.text: MTT cytotoxicity, alveolar epithelial cells BEAS-2B
- Type: cell-based
# reported IC50; entries follow
quantity: IC50 (nM)

compound="Cc1ccc(S(=O)(=O)O)cc1.O=C1[O][Pt]2([NH]C3CCCCC3[NH]2)[O]C(=O)C1CCCCN1CCCCC1 (racemic) [Compound 9]" test_result=2000
compound="NCCCCC1C(=O)[O][Pt]2([NH]C3CCCCC3[NH]2)[O]C1=O.O=P(O)(O)O (racemic) [Compound 11]" test_result=2000

* * *

- Tested on: normal mice
- assay.method.text: in vivo
- condition.info: Table 1, formula I compounds; method of test example 1
- Description: Kunming mice with 4˜6 weeks old and 18 g˜22 g by weight were taken, 50% males and 50% females. […] The condition of mortality and toxicity were observed after administration. Totally observing for 14 days, LD50 value was calculated using Bliss method according to the mortality.
Note to self: LD50 under 0.8 mmol/kg means true (1), ties and anything higher get false (0).

compound="CN(CCCCC1C(=O)[O][Pt]2([NH]C3CCCCC3[NH]2)[O]C1=O)C(C)(C)C (centres unmarked) [Compound 34]" assay_target="normal mice" label="false (0)"
compound="CCN(CC)CCCCC1C(=O)[O][Pt]([NH]C2CCCC2)([NH]C2CCCC2)[O]C1=O [Compound 55]" assay_target="normal mice" label="false (0)"
compound="NC1CCCCC1N.O=C1[O][Pt][O]C(=O)C1CCC(Cl)CN1CCCCC1 (centres unmarked) [Compound 36]" assay_target="normal mice" label="true (1)"
compound="CN(CCCCC1C(=O)[O][Pt]2([NH]C3CCCCC3[NH]2)[O]C1=O)Cc1ccccc1 (centres unmarked) [Compound 57]" assay_target="normal mice" label="true (1)"
compound="CN(CCCCC1C(=O)[O][Pt]2([NH]C3CCCCC3[NH]2)[O]C1=O)C1CCCC1 (centres unmarked) [Compound 43]" assay_target="normal mice" label="false (0)"
compound="CN(C)CCCCC1C(=O)[O][Pt][O]C1=O.NCC1CCCN1 [Compound 48]" assay_target="normal mice" label="false (0)"
compound="CC1CC(C)[NH][Pt]2([NH]1)[O]C(=O)C(CCCCN(C)C)C(=O)[O]2 (centres unmarked) [Compound 45]" assay_target="normal mice" label="false (0)"
compound="CCCCN(C)CCCCC1C(=O)[O][Pt]2([NH][C@H]3CCCC[C@H]3[NH]2)[O]C1=O (some centres unmarked) [Compound 60]" assay_target="normal mice" label="false (0)"
compound="CN(C)CCCCC1C(=O)[O][Pt][O]C1=O.NC1CCC(N)C1 [Compound 44]" assay_target="normal mice" label="false (0)"
compound="COC1CC(C)N(CCCCC2C(=O)[O][Pt][O]C2=O)C1C.NC1CCCCC1N (centres unmarked) [Compound 39]" assay_target="normal mice" label="true (1)"
compound="CC1CCN(CCCCC2C(=O)[O][Pt]3([NH]C4CC=CCC4[NH]3)[O]C2=O)C1 (centres unmarked) [Compound 33]" assay_target="normal mice" label="false (0)"
compound="CN(CCCCC1C(=O)[O][Pt]([NH2])([NH2])[O]C1=O)Cc1ccc(Cl)cc1F [Compound 59]" assay_target="normal mice" label="true (1)"
compound="CN(CO)CCCCC1C(=O)[O][Pt]([NH2])([NH]C2CCC2)[O]C1=O (centres unmarked) [Compound 52]" assay_target="normal mice" label="true (1)"

* * *

- Test system: normal mice
- assay.method.text: in vivo
- condition.info: Table 1, formula I compounds; method of test example 1
Note to self: LD50 under 0.7 mmol/kg means Yes, ties and anything higher get No.

compound="O=C1[O][Pt]2([NH]C3CCCCC3[NH]2)[O]C(=O)C1CCCCN(C1CCCC1)C1CCCC1 (centres unmarked)" assay_target="normal mice" label=No
compound=O=C1[O][Pt]([NH]C2CCCC2)([NH]C2CCCC2)[O]C(=O)C1CCCCN(C1CC1)C1CC1 assay_target="normal mice" label=No
compound="CCN(C)CC(CCC1C(=O)[O][Pt][O]C1=O)OC.N.N (centres unmarked)" assay_target="normal mice" label=No
compound="CN(CCCCC1C(=O)[O][Pt]2([NH]C3CCCCC3[NH]2)[O]C1=O)Cc1ccc(Cl)cc1 (centres unmarked)" assay_target="normal mice" label=Yes
compound="CC1CC(Cl)C(C)N1CCCCC1C(=O)[O][Pt]2([NH]C3CCCCC3[NH]2)[O]C1=O (centres unmarked)" assay_target="normal mice" label=Yes
compound="CC1CCN(CCCCC2C(=O)[O][Pt]3([NH]C4CCCCC4[NH]3)[O]C2=O)CC1 (centres unmarked)" assay_target="normal mice" label=No
compound="O=C1[O][Pt]2([NH]C3CCCCC3[NH]2)[O]C(=O)C1CCCCN1CC=CC1 (centres unmarked)" assay_target="normal mice" label=No

* * *

- Test system: gastric cancer MGC803
- assay.method.text: MTT cytotoxicity, gastric cancer MGC803
- Type: cell-based
- condition.info: n = 6
# reported IC50; entries follow
quantity: IC50 (µM)

molecule=CCN(CC)CCCCC1C(=O)[O][Pt]2([NH]CC[NH]2)[O]C1=O.Cc1ccc(S(=O)(=O)O)cc1 assay_target="gastric cancer MGC803" quantity=IC50 test_result=5
molecule=CCN(CC)CCCCC1C(=O)[O][Pt]2([NH]CC3(CCOCC3)C[NH]2)[O]C1=O.O=P(O)(O)O assay_target="gastric cancer MGC803" quantity=IC50 test_result=3
molecule="CCN(CC)CCCCC1C(=O)[O][Pt]2([NH]CC3CCC3C[NH]2)[O]C1=O.O=P(O)(O)O (racemic)" assay_target="gastric cancer MGC803" quantity=IC50 test_result=7

* * *

- Test system: Lung cancer Lewis
- assay.method.text: MTT cytotoxicity, lung cancer Lewis
- Type: cell-based
pIC50: −log10 of the molar value.
# reported pIC50; entries follow
quantity: pIC50

compound="Cc1ccc(S(=O)(=O)O)cc1.O=C1[O][Pt]2([NH]C3CCCCC3[NH]2)[O]C(=O)C1CCCCN1CCCCC1 (racemic) [Compound 9]" assay_target="Lung cancer Lewis" test_result=4.30
compound="NCCCCC1C(=O)[O][Pt]2([NH]C3CCCCC3[NH]2)[O]C1=O.O=P(O)(O)O (racemic) [Compound 11]" assay_target="Lung cancer Lewis" test_result=4.31

* * *

- Tested on: Testis cell ST
- assay.method.text: MTT cytotoxicity, testis cell ST
- Assay type: cell-based
- condition.info: n = 6
quantity: IC50 (µM)

compound="CCN(CC)CCCCC1C(=O)[O][Pt]2([NH]CC3(CCOCC3)C[NH]2)[O]C1=O.O=P(O)(O)O [Compound 24]" units_text=µM test_result=6
compound="CCN(CC)CCCCC1C(=O)[O][Pt][O]C1=O.NC1CCC(N)CC1.O=P(O)(O)O [Compound 23]" units_text=µM test_result=8
compound="C[N+](C)(C)CCCCC1C(=O)[O][Pt][O]C1=O.Cc1ccc(S(=O)(=O)[O-])cc1.N[C@@H]1CCCC[C@H]1N [Compound 29]" units_text=µM test_result=8
compound="CCN(CC)CCCCC1C(=O)[O][Pt]2([NH]CCCC[NH]2)[O]C1=O.O=P(O)(O)O [Compound 19]" units_text=µM test_result=13
compound="N.N.O=C([O-])C1(C(=O)[O-])CCC1.[Pt+2] [Carboplatin, reference compound]" units_text=µM test_result=195
compound="CCN(CC)CCCCC1C(=O)[O][Pt]2([NH]CC(CO)(CO)C[NH]2)[O]C1=O.O=P(O)(O)O [Compound 21]" units_text=µM test_result=13
compound="CCN(CC)CCCCC1C(=O)[O][Pt]2([NH]CCC[NH]2)[O]C1=O.O=P(O)(O)O [Compound 18]" units_text=µM test_result=22
compound="CCN(CC)CCCCC1C(=O)[O][Pt]2([NH]CC3CCC3C[NH]2)[O]C1=O.O=P(O)(O)O (racemic) [Compound 22]" units_text=µM test_result=14
compound="CCN(CC)CCCCC1C(=O)[O][Pt]2([NH]CC[NH]2)[O]C1=O.Cc1ccc(S(=O)(=O)O)cc1 [Compound 17]" units_text=µM test_result=16

* * *

# reported LD50 vALUE; entries follow
- System: normal mice
- assay.method.text: in vivo
- condition.info: Table 3; mice, single intravenous administration, 14 days observation
quantity: LD50 vALUE (mmol/kg)

compound="CCN(CC)CCCCC1C(=O)[O][Pt]2([NH]C3CCCC3[NH]2)[O]C1=O.O=P(O)(O)O (racemic) [Compound 14]" units_text=mmol/kg test_result=0.866
compound="CCN(CC)CCCCC1C(=O)[O][Pt]2([NH]C3CCCCC3[NH]2)[O]C1=O.Cc1ccc(S(=O)(=O)O)cc1 (racemic) [Compound 3]" units_text=mmol/kg test_result=0.815
compound="N.N.O=C([O-])C1(C(=O)[O-])CCC1.[Pt+2] [Carboplatin, reference compound]" units_text=mmol/kg test_result=0.336
compound="NCCCCC1C(=O)[O][Pt]2([NH]C3CCCCC3[NH]2)[O]C1=O.O=P(O)(O)O (racemic) [Compound 11]" units_text=mmol/kg test_result=0.803
compound="Cc1ccc(S(=O)(=O)O)cc1.O=C1[O][Pt]2([NH]C3CCCCC3[NH]2)[O]C(=O)C1CCCCN1CCCCC1 (racemic) [Compound 9]" units_text=mmol/kg test_result=0.725

Just for reference, patent US9725477B2 is where these values come from.
